# Test system: thyroid cancer cell line (TT)
# test name: Tumor cell proliferation inhibition (CTG, 72 h)
# Format: cell-based
# condition set: TT thyroid cancer cells, 72 h; read-out: TT (uM), inhibitory activity IC50
measured property: IC50 (µM)
Answer in µM, number only, no unit symbol.

COc1cc2nccc(Oc3c(F)cc(NC(=O)NC4CC4)c(Cl)c3F)c2cc1C(N)=O [III-01] ... 1.5

Sample COc1cc2nccc(Oc3ccc(NC(=O)NC4CC4)c(Cl)c3F)c2cc1C(N)=O [Ref-2, reference compound] ; IC50 observed: 6.4

---

# measured target: UniProt P22455
# Sequence (P22455 22-802): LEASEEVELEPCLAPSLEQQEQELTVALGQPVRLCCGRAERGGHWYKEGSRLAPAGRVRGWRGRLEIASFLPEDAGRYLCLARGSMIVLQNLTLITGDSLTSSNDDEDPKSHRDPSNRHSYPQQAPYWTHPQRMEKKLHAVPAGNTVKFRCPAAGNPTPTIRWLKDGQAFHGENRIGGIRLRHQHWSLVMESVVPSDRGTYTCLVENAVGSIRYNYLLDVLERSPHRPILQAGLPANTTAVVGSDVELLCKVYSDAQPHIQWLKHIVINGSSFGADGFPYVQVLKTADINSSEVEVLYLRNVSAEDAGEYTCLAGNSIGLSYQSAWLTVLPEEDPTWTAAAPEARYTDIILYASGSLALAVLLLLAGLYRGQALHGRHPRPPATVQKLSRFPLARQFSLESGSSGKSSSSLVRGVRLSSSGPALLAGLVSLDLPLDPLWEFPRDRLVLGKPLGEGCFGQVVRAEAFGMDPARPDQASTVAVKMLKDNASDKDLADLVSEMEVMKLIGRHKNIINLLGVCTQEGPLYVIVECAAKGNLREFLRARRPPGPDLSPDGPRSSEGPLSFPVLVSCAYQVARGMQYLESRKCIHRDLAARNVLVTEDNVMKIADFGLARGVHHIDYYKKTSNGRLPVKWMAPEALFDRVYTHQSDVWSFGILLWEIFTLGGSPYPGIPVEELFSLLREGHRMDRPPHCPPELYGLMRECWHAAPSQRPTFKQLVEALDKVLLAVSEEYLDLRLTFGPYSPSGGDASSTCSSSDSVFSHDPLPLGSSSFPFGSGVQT
# test name: Kinase inhibition, Mobility-Shift Assay
# Format: biochemical
# condition set: read-out: FGFR-4 IC50
measured property: IC50 (nM)
# unit: nM | format: bare number

These solved cases illustrate the format of a correct answer.
COc1cc2nccc(Oc3ccc(NC(=O)NC4CC4)c(Cl)c3)c2cc1C(N)=O [Lenvatinib, reference compound] ... 65
COc1cc2nccc(Oc3c(F)cc(NC(=O)NC4CC4)c(Cl)c3F)c2cc1C(N)=O [III-01] ... 17

Next item in the queue.
# value of IC50, UniProt P22455, item COc1cc2nccc(Oc3ccc(NC(=O)NC4CC4)c(Cl)c3F)c2cc1C(N)=O [Ref-2, reference compound] = 39
